Reference source for all entries: patent US6504005B1

- System: Staphylococcus aureus
- Measurement Parameters: read-out: Concentration inhibiting 50% of bacterial growth (μM) (IC50); after 1 day at pH 7.4, 37° C.
Endpoint: IC50 (µM)
Entry rule: numbers only, all in µM.

Inquiry: Please report IC50 for the following compound: `CC1=C(C(=O)O)N2C(=O)[C@@H](NC(=O)[C@H](NC(=O)OCC3c4ccccc4-c4ccccc43)c3ccccc3)[C@H]2SC1`
Reply text: 15
